System: HL-60
Test method notes: NCI tumour cell line growth inhibition, 48 h
Active and inactive are the calls of the source. Rule as the data show it: active = GI50 up to about 1.1 µM and inactive = higher. Where a SMILES comes first, the peptide text is derived from it. The star is where a group is joined. CH2Cl = ClC*
Labels: active, inactive

* C=C[C@H]1C=Cc2c(OC)cccc2[C@@H]1COP1(=S)NC(C)C(c2ccccc2)O1 (stereo not given in full) | inactive
* COc1ccc(OC)c2c(C(=O)O)c(C(C)c3ccccc3)ccc12 (stereo not given) | inactive
* O=[N+]([O-])c1ccc(N2N=C(c3ccc(NCc4nc5ccccc5[nH]4)cc3)CC2c2ccco2)cc1 (stereo not given) | inactive
* CCCCC/N=C/c1c(O)c(O)c(C(C)C)c2cc(C)c(-c3c(C)cc4c(C(C)C)c(O)c(O)c(/C=N/CCCCC)c4c3O)c(O)c12 | inactive
* CCC1OCCN1C(C)C (stereo not given) | inactive
* Sc1ncnc2c1ncn2C1CCCO1 (stereo not given) | inactive
* CC(=O)NC(CC(C)C)C(=O)NC(Cc1ccccc1)C(=O)CCl (stereo not drawn) (Ac-Leu-Phe-CH2Cl; configuration not given here) | inactive
* ClCc1ccc2ccc3ccc(CCl)nc3c2n1 | inactive
* COC1=CC(=O)C2C(C1=O)[C@@H]1c3ccccc3C[C@H]21 (stereo not given in full) | inactive
* COC(=O)/N=C(\NC(=O)OC)Nc1ccc(Oc2ccccc2)cc1NC=O | active
* CC1=C[C@H]([C@H]2C=C(C)C(C(N)=O)=CN2Cc2c(Cl)cccc2Cl)N(Cc2c(Cl)cccc2Cl)C=C1C(N)=O | inactive
* O=c1[nH]ccc(CNC23CC4CC(CC(C4)C2)C3)c1O | inactive
* O=C1/C(=C\c2ccc([N+](=O)[O-])o2)SC2NC(COc3ccc(Cl)cc3)=NN12 (stereo not given) | inactive
* CSc1c(C(=O)Nc2ccc(Cl)cc2)c(N)n(N)c(=O)c1C#N | inactive
* O=C(Nc1nnc(-c2c(Cl)c(Cl)c(Cl)c(Cl)c2-c2nc3cc(C(=O)c4ccccc4)ccc3[nH]2)o1)c1ccccc1 | inactive
* CCOC(=O)CO/N=C\C1=CC(=O)C2CC1C2(C)C (stereo not given) | inactive
* O=C1C=C(Nc2cccnc2)c2ccccc2/C1=N/O | active
* COc1cc2c(c(OC)c1OC)-c1ccc(SC)c(=O)cc1[C@@H](NC(=O)c1ccc(Cl)cc1)CC2 | active
* N#Cc1nc(-c2cc([N+](=O)[O-])cc([N+](=O)[O-])c2)oc1N | inactive
* Clc1cc(OCC23CC4CC(CC(C4)C2)C3)nc(OCC23CC4CC(CC(C4)C2)C3)n1 | inactive
